- System Name: T1, human PVRIG-his (AcroBiosystems, Cat NO. PVG-H52H4) (human, UniProt Q6DKI7 41-171, limits assumed)
- T1 construct: also called human PVRIG protein
- T1 sequence (looked up): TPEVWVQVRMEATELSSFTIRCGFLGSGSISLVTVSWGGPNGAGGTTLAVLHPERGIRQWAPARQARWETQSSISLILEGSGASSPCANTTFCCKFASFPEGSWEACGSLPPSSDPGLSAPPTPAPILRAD
- Procedure Text: competition ELISA, PVRIG-His coated, competitor human PVRL2-mFc
Measure Name: % relative activity (IC50) parental antibody/test antibody (%)
# unit: % | format: bare number

PVRIG-A50-H2a (Fc fusion, humanized variant of PVRIG-A50; also called A50.VH2a; not shown: constant part not restated for the humanized forms; parents are VHH-hinge-CH2-CH3 of human IgG1; detected by anti-human) EVQLVESGGGLVQPGGSLRLSCAASGFTFSYYDMSWVRQAPGKGLEWVSTINSNAGRTSYVDSVKGRFTISRDNTKNTLYLQMNSLRAEDTAVYYCVEGDPHNFGLESLSLRDFGSWGQGTMVTVSS :: 85.3

Please turn your attention to the following entry.
Query :: Note down % relative activity (IC50) parental antibody/test antibody recorded for PVRIG-A105-H2 (Fc fusion, humanized variant of PVRIG-A105; also called A105 VH2; not shown: constant part not restated for the humanized forms; parents are VHH-hinge-CH2-CH3 of human IgG1; detected by anti-human) EVQLVESGGGLVQPGGSLRLSCAASGRTFDRHTMTWFRQAPGKEREFVATASRIPGDTYYVDSVKGRFTISRDNAKNSLYLQMNSLRAEDTAVYYCAATSAYCSEVDCYEKGSWYDNWGQGTMVTVSS
Result :: 128
